# Test: RAM signaling pathway blockade in yeast – S. cerevisiae, Pdr1DBD-CYC8 efflux-inhibited sensitized strain, primary screen (AID 1298);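 further: 0% = DMSO untreated cells without growth and 100% = 10 µM 1-NA-PP1 full growth; higher means more yeast growth rescued from 5-FOA killing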
# Test Parameters: S. cerevisiae cbk1-as DSE1-URA3 strain, 5-FOA growth OD615, 2 d; at 50 µM; hits give high values

{"Compound": "Cc1cc(N2CCOCC2)nc2ccc(NC(=O)C3CCC(C)CC3)cc12 (configuration not stated)", "U": "%", "RAM network inhibition": 4.29}
{"Compound": "Cc1cc(C)nc(NC(=O)c2cnc3sccn3c2=O)n1", "U": "%", "RAM network inhibition": 0.52}
{"Compound": "O=C(CC1Oc2ccccc2NC1=O)NCCCN1CCOCC1 (configuration not stated)", "U": "%", "RAM network inhibition": 0.57}
{"Compound": "CCN1CCN(Cc2ccc(NC(=O)Nc3ccccc3)cc2)CC1", "U": "%", "RAM network inhibition": 1.93}
{"Compound": "O=C(CS(=O)(=O)c1cn(Cc2ccc(F)cc2)c2ccccc12)N1CCCCC1", "U": "%", "RAM network inhibition": 5}
{"Compound": "Cc1nc2sc(C(c3cccs3)N3CCOCC3)c(O)n2n1 (configuration not stated)", "U": "%", "RAM network inhibition": 1.99}
{"Compound": "COc1cccc(C2C(C(=O)c3ccc(C)o3)=C(O)C(=O)N2CCCN(C)C)c1 (configuration not stated)", "U": "%", "RAM network inhibition": 1.67}
{"Compound": "CCOC(=O)CN(C(=O)c1ccccc1)c1ccccc1C", "U": "%", "RAM network inhibition": 1.96}
{"Compound": "O=C1c2ccccc2C(=O)N1C/C=C/CN1C(=O)c2ccccc2C1=O", "U": "%", "RAM network inhibition": 4.65}
{"Compound": "COc1ccc2oc(C(=O)CCC(=O)O)c(N)c2c1", "U": "%", "RAM network inhibition": 1.31}
{"Compound": "CC1(C)CC(=O)C2(CC3=C(CC(C)(C)CC3=O)O2)C(=O)C1", "U": "%", "RAM network inhibition": 1.77}
{"Compound": "COCCn1cc(C(=O)c2ccccc2OCC(=O)Nc2cc(C)on2)cc(C#N)c1=O", "U": "%", "RAM network inhibition": 3.2}

* * *

# Test: HUVEC growth inhibition – cell-based, human, primary screen (AID 575);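 further: 100% = median of untreated cell wells with 0.1% DMSO on each plate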
# Test Parameters: HUVEC proliferation, CellTiter-Glo luminescence, 72 h; at 10 µM; hits give low values
Label key: t means viability under 90%; f means viability of 90% or more.

{"Compound": "COC(=O)c1ccccc1NC1c2ccccc2C(=O)N1c1cccnc1 (stereo unspecified)", "Assigned Class": "t"}
{"Compound": "O=C(CCNS(=O)(=O)c1cccs1)Nc1ccccc1F", "Assigned Class": "f"}
{"Compound": "c1ccc(CN2CCN(CCCNc3ccc4nnc(-c5ccccc5)n4n3)CC2)cc1", "Assigned Class": "t"}
{"Compound": "Cn1c(=O)c2c(nc3sccn32)n(C)c1=O", "Assigned Class": "f"}
{"Compound": "CC(C)CCSc1nc2c(c(=O)[nH]c(=O)n2C)n1CCCc1ccccc1", "Assigned Class": "t"}
{"Compound": "Cc1nc2ccccc2c2oc(C(=O)NCCCN3CCCC3=O)cc12", "Assigned Class": "t"}
{"Compound": "CCn1c(NC(=O)c2cccc(Cn3cc(Cl)cn3)c2)nc2ccccc21", "Assigned Class": "t"}
{"Compound": "CCc1ccc(C(=O)NC2CCCCC2)s1", "Assigned Class": "f"}
{"Compound": "CCCC(=O)Nc1cc(C)c2c(=O)oc3ccccc3c2n1", "Assigned Class": "t"}
{"Compound": "Cc1nnc(SCCn2c(N3CCC(Cc4ccccc4)CC3)nc3c2c(=O)[nH]c(=O)n3C)s1", "Assigned Class": "t"}
{"Compound": "Cc1cccc(CN2CCC(CNC(=O)C3CCCN(S(=O)(=O)c4cnc[nH]4)C3)CC2)c1 (stereo unspecified)", "Assigned Class": "f"}
{"Compound": "Cc1ccc(S(=O)(=O)C(C#N)c2nc3ccccc3nc2N2CCCCC2)cc1 (stereo unspecified)", "Assigned Class": "t"}
{"Compound": "O=C1c2ccccc2S(=O)(=O)N1CC(O)Cn1c2ccccc2c2ccccc21 (stereo unspecified)", "Assigned Class": "t"}
{"Compound": "COc1ccc(N2CCN(C(=O)C(C)(C)Oc3ccc(Cl)cc3)CC2)cc1", "Assigned Class": "t"}
{"Compound": "COCCNC(=O)CN1C(=O)CSc2ncccc21", "Assigned Class": "f"}
{"Compound": "COCc1cc(C)nc(Nc2ccc(C)cc2C)c1C#N", "Assigned Class": "t"}
{"Compound": "CCOC(=O)N1CCN(C(=O)COc2ccc(S(=O)(=O)NC(C)C)cc2)CC1", "Assigned Class": "f"}
{"Compound": "Cc1occc1C(=O)N1CCN(Cc2ccccc2)CC1", "Assigned Class": "f"}
{"Compound": "CCOc1ccc(C2CC(c3cccc(OC)c3)Nc3nc(N)nn32)cc1 (stereo unspecified)", "Assigned Class": "f"}
{"Compound": "CS(=O)(=O)NCCSCc1c(F)cccc1Cl", "Assigned Class": "f"}
{"Compound": "O=S(=O)(c1ccccc1)N1CCN(S(=O)(=O)c2ccccc2)C1", "Assigned Class": "f"}
{"Compound": "CC(C)CC1NC2(C(=O)N(C)c3ccccc32)C2C(=O)N(C(C)C)C(=O)C12 (stereo unspecified)", "Assigned Class": "t"}
{"Compound": "Cn1cc(C2NC(=O)c3c(sc4c3CCCC4)N2)c2ccccc21 (stereo unspecified)", "Assigned Class": "t"}
{"Compound": "CN(C)c1oc(-c2ccccc2F)nc1C#N", "Assigned Class": "t"}
{"Compound": "CCC(Oc1ccccc1)C(=O)Nc1ccccc1OC (stereo unspecified)", "Assigned Class": "f"}
{"Compound": "CC1CCCN(C(=O)C23CCC(C)(C(=O)C2)C3(C)C)C1 (stereo unspecified)", "Assigned Class": "f"}
{"Compound": "CCN1CCN(Cc2ccc(NC(=O)Nc3ccccc3)cc2)CC1", "Assigned Class": "t"}
{"Compound": "COc1ccc(C2c3c(oc4ccccc4c3=O)C(=O)N2c2ccc(C)cn2)cc1OC (stereo unspecified)", "Assigned Class": "f"}
{"Compound": "CCCNC(=O)C1CCN(S(=O)(=O)c2ccc3nc4c(c(C(=O)O)c3c2)CCCCC4)CC1", "Assigned Class": "f"}
{"Compound": "COc1ccccc1NCN1C(=O)CCC1=O", "Assigned Class": "f"}
{"Compound": "Cc1noc(C)c1S(=O)(=O)N1CCN(Cc2ccc3c(c2)OCO3)CC1", "Assigned Class": "f"}
{"Compound": "Cn1nnnc1SCC(=O)N1CCN(c2ccccc2)CC1", "Assigned Class": "f"}
{"Compound": "O=C(c1ccc2nc(N3CCOCC3)sc2c1)N1CCCC1", "Assigned Class": "f"}
{"Compound": "Cc1ccccc1-n1c(Cn2c(=O)sc3ccccc32)nnc1SCC(=O)N1CCCC1", "Assigned Class": "f"}
{"Compound": "N#CC(C(=O)Nc1ccccc1)=C1CCCCC1", "Assigned Class": "t"}
{"Compound": "CC(=O)c1ccc(OCC(O)CN2CCN(Cc3ccc4c(c3)OCO4)CC2)cc1 (stereo unspecified)", "Assigned Class": "f"}
{"Compound": "O=C(c1cccs1)N1CCc2ccccc21", "Assigned Class": "t"}
{"Compound": "COc1ccc(C(=O)Nc2nncs2)c(OC)c1", "Assigned Class": "f"}
{"Compound": "COCCCNC(=O)CSc1ccc(Cl)cc1", "Assigned Class": "t"}
{"Compound": "COc1ccc(-n2ncc3c(N4CCN(c5cccc(C)c5C)CC4)ncnc32)cc1", "Assigned Class": "t"}
